Every entry's value here was drawn from the supplement of paper PMC9170038.

Measured apparent KD of MS2 coat protein by item
# Test system: MS2 coat protein
# protocol: apparent KD of MS2 coat protein; higher = weaker reporter binding
# test.parameters: Eterna round: R107; input ligand: theophylline 2 mM
Field: numeric (µM). Do not append units.

biosequence	target.entity	apparent KD of MS2 coat protein (µM)
AAAGCUACGUAAAAUAAAACUACAUGUGAAGGAGCGCGCGAAAGCGCAGGUAGGUCGCACAUGAGGAUCACCCAUGUCGUAGCAA [MAT - Exclusion Arginine A - Mod of Eli - D5]	MS2 coat protein	0.0782
AUUCAGAGAUCACAUGAGGAUCACCCAUGUCGAGGACCGGUACGGCCGCCACUCGCGGCGGUGAAAAUAGAUACAAAGUAUCUAU [Ex_TrypA - Vienna approves #2]	MS2 coat protein	0.0459
CUCGUCAACUCGGCCGCCACUGACGUGUGGUCAGGCCUGUAGAAACACAUGAGGAUCACCCAUGUCAGGACCGGGAGCUUUAUUA [theeternabot_exclusion_MS2_Trp_B_26]	MS2 coat protein	0.0616

In the following, a different sequence is considered.
Q) Report apparent KD of MS2 coat protein for UCGGGCCUUCUUUCUUGGCCCGUUACAGAAGGAGCGUCGGAAAUGACAGGUAGGUCGCUGAGAACAUGAGGAUCACCCAUGUAUU [SSAA #14] please.
A) 0.0251

====

# System: MS2 coat protein
# protocol: apparent KD of MS2 coat protein; designed switch direction (-1 OFF switch, 1 ON switch): 1; higher = weaker reporter binding
# test.parameters: input ligand: FMN 200 uM
Recorded measurements of apparent KD of MS2 coat protein, one per entry
Report the figure in nM without appending any unit label.

Some solved cases for reference:
biosequence	recorded.endpoint	readout.units	reported.value
GGUAGGUUACUACCAAUACAUGAGGAUCACCCAUGUUGUCAUGAGGAUAUGGUACCUAUUUGGUACCAGAAGGCAUGUAUAAUU [Fiskers NG3ss - 20] (Eterna round: R96, puzzle: Same State NG 3)	apparent KD of MS2 coat protein	nM	49.6
UGUUGUAUUACAGGAUAUCUAUUAGUGUUAUUUAGAGAAGGGUAUUCACAUGAGGAUCACCCAUGUAUAUACGAGGAAGUUGUG [JMF's solution 90] (Eterna round: R96, puzzle: Same State NG 1)	apparent KD of MS2 coat protein	nM	65.1
ACUCUCACAGUAGGAUAUGUAGGAUAUGCCUACAUGAGGAUCACCCAUGUAAACAUGGCAGAAGGAUAGAAGGACUUACAUGGG [pwkr ssNG2 2FMN + 1F5.4] (Eterna round: R96, puzzle: Same State NG 2)	apparent KD of MS2 coat protein	nM	108
GUGCGAGUGCCACAGGAUAUACGUGGAUCGACAUGAGGAUCACCCAUGUAUAUCCUAAUAAUUGCGUAGAAGGGUGGUCAGUCGG [Inzage] (Eterna round: R96, puzzle: Same State 2)	apparent KD of MS2 coat protein	nM	164

Q) Tell me the measured apparent KD of MS2 coat protein of GGAGCCAAGGCAGGAUAUUCAUAUUAAAUAACAUGAGGAUCACCCAUGUUGGCCAGAAGGCCAUGGGAGAAGGGCCAUGGCUCG [Xeonanis - 13 mod22] (Eterna round: R96, puzzle: Same State NG 2) , please.
A) 18.8

====

# Test system: MS2 coat protein
# protocol: apparent KD of MS2 coat protein; designed switch direction (-1 OFF switch, 1 ON switch): -1; higher = weaker reporter binding
# test.parameters: input ligand: none
Here, each record is paired with measured apparent KD of MS2 coat protein data.
Form entry: value (nM) — number only.

biosequence	recorded.endpoint	readout.units	reported.value
UUUGUUUAUGUAGGAUAUGCCUGGCGUGCCUUUGCAGAAGGACAUGAGGAUCACCCAUGUAUUGCGGUCUGCGUUCAGAUCGCA [salish99_ExNG1_r4_038] (Eterna round: R96, puzzle: Exclusion NG 1)	apparent KD of MS2 coat protein	nM	29.4
UUCCUCUCUUCUCCGUCUCACAUGAGGAUCACCCAUGUAACAUAGGAUAUGCUUGGUAUUUAAAUGCAGAAGGAUGUUAGUAUU [JR_ExcNG3_Sub081] (Eterna round: R96, puzzle: Exclusion NG 3)	apparent KD of MS2 coat protein	nM	29.5

Q) Give MS2 coat protein apparent KD of MS2 coat protein for GAGCUGUGAGGAUAUACAUGAGGAUCACCCAUGUUAAGGAAGUGGUGUAUAUUGUAGUGUAGAAGGCACUUGUG [JR_Ex3_Sub025] (Eterna round: R97, puzzle: Exclusion 3)
A) 306

Q) Give recorded apparent KD of MS2 coat protein with MS2 coat protein for the following sequence: AACCAGCGAGGAUAUGCUUGAGCUUGUUCUGGUCAGAAUCGACUUGAGGAUCACCCAAGUAGAAGGUGCUGACG [EX2 #60] (Eterna round: R97, puzzle: Exclusion 2)
A) 16.9

Q) Enter reported apparent KD of MS2 coat protein observed with MS2 coat protein for AAGAAGAAGUAAGGAUAUGAAGAUCUGGUGGUGACAUGAGGAUCACCCAUGUGAAAACGAUAAGAUCAGAAGGUAUAAGAAGAA [AK ExNG2-3.2] (Eterna round: R96, puzzle: Exclusion NG 2)
A) 85.8
